Experiment: Steady-state pharmacokinetics of gemcabene at 300, 600, 900 mg/day in FH patients
Assay type: in vivo, human
Settings: human, plasma, oral, 300 mg/day, 300 mg/day (Tablet D), steady state, FH patients, mean, n=8; read-out: AUC0-24
READOUT_NAME: AUC(0-t) (µg·h/mL)
Give just the numeric value; µg·h/mL need not be written.

(Q) I am curious: what AUC(0-t) value has been reported for CC(C)(CCCCOCCCCC(C)(C)C(=O)O)C(=O)O ?
(A) 1550

----------
Test: Steady-state plasma gemcabene pharmacokinetics, 600 mg daily, healthy female subjects
Assay type: in vivo
Settings: human, oral, Day 7, Treatment B, read-out: mean plasma gemcabene trough concentration
READOUT_NAME: concentration at 7 day (µg/mL)
Give just the numeric value; µg/mL need not be written.

(Q) I am curious: what concentration at 7 day value has been reported for CC(C)(CCCCOCCCCC(C)(C)C(=O)O)C(=O)O [gemcabene] ?
(A) 106

----------
Assay: Steady-state plasma gemcabene pharmacokinetics, 600 mg daily, healthy female subjects
Assay type: in vivo
Settings: human, oral, Day 8, Treatment B, read-out: mean plasma gemcabene trough concentration
READOUT_NAME: concentration at 8 day (µg/mL)
Give just the numeric value; µg/mL need not be written.

(Q) I am curious: what concentration at 8 day value has been reported for CC(C)(CCCCOCCCCC(C)(C)C(=O)O)C(=O)O ?
(A) 104
